Attribution: BindingDB's records for doi:10.1021/acs.jmedchem.6b01065

Molecular target: Mineralocorticoid receptor (Homo sapiens)
Sequence (P08235 whole entry): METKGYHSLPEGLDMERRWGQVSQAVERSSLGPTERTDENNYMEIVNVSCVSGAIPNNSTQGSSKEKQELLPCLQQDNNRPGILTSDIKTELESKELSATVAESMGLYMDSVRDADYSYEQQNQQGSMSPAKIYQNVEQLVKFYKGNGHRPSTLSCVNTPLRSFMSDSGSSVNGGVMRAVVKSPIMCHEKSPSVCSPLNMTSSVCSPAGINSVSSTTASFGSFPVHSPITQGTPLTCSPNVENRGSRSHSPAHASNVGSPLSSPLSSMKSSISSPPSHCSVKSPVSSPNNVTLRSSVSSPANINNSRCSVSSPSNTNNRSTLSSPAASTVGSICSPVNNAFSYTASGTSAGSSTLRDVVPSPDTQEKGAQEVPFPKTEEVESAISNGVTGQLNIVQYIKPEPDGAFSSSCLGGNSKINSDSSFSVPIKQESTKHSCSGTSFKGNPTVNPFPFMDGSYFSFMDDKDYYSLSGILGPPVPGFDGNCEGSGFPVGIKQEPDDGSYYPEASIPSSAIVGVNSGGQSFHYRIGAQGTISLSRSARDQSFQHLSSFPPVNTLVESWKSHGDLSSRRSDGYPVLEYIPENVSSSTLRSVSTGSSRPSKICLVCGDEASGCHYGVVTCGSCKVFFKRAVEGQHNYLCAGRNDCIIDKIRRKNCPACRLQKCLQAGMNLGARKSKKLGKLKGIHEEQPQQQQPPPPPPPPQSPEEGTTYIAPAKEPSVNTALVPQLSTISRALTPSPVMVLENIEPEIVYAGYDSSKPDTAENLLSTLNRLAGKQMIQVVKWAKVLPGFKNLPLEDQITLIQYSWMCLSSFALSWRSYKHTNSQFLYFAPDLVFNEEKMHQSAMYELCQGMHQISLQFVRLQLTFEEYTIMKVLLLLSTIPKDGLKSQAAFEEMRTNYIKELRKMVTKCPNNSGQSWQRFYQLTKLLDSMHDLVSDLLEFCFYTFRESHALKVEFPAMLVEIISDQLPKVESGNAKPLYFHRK
Experiment: Antagonist activity at Gal4-fused human MR LBD (671 to 984 residues) expressed in African Green Monkey CV-1 cells assessed as inhibition of aldosterone-induced transactivation activity after 20 hrs by luciferase reporter gene assay
Measurement Type: IC50 (nM)
Provide only the numeric value, understood in nM.

Complete the entry with IC50 for Cc1c(C(=O)Nc2ccc(S(C)(=O)=O)cc2)cc(CCO)n1-c1ccc(Cl)cc1C(F)(F)F
3.7
